Source of measurements: ChEMBL document CHEMBL4622853

# System: Serine/threonine-protein kinase B-raf (Homo sapiens), P15056 [V600E]
# Sequence (P15056 whole entry V600E): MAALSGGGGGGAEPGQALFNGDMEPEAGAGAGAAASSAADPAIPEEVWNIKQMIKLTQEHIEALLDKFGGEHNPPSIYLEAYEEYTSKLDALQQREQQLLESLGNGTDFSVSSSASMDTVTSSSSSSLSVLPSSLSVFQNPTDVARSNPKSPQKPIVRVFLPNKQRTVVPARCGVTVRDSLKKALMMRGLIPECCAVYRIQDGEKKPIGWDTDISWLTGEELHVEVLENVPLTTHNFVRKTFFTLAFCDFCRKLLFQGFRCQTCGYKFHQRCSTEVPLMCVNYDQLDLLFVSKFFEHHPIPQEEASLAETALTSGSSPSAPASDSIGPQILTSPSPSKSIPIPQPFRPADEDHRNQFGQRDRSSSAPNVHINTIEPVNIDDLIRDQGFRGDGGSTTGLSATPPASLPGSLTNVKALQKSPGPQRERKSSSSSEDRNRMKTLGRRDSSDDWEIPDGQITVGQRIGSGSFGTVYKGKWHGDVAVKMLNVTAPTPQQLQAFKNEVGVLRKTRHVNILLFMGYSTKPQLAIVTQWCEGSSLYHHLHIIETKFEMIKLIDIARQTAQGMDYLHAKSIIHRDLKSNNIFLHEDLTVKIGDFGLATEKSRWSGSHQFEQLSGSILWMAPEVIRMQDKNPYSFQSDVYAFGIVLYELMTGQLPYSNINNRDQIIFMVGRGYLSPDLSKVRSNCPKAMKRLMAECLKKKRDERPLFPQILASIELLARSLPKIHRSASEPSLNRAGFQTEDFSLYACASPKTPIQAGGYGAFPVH
# Sequence (P15056 whole entry): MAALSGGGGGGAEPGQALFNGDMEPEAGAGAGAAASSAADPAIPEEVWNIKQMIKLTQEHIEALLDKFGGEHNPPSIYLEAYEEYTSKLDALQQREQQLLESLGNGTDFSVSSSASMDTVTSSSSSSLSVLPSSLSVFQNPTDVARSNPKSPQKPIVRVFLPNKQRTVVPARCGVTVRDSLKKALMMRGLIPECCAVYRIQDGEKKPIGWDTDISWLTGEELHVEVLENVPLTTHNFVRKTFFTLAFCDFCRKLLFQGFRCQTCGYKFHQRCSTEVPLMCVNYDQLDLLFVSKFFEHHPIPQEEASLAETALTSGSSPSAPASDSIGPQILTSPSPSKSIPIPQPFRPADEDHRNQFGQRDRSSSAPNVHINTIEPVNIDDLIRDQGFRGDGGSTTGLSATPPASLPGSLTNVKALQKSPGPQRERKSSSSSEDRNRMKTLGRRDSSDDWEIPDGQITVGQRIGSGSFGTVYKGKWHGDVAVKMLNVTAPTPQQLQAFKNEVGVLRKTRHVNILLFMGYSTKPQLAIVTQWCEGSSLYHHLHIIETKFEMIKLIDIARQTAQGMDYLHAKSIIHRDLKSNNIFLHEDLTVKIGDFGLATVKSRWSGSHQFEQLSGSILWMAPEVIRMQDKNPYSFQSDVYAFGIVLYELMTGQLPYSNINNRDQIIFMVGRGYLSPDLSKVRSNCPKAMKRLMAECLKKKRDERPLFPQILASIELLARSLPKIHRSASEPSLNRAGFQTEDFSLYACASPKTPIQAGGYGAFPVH
# test: Inhibition of human BRAF V600E mutant at 10 uM by ELISA
Threshold check on inhibition: at or above 70% gives 1.0, strictly below gives 0.0.

>  <compound-smiles>
O=C(Nc1ccc(Br)cc1)Nc1ccc(F)c(C(=O)c2c[nH]c3ncc(Br)cc23)c1F

>  <qualitative-label>
1.0

$$$$
>  <compound-smiles>
O=C(NCCCNc1nccc(-n2ccc3cccnc32)n1)c1c(F)cccc1F

>  <qualitative-label>
1.0

$$$$
>  <compound-smiles>
Cc1ccc(S(=O)(=O)NCCNc2nccc(-n3ccc4cccnc43)n2)cc1

>  <qualitative-label>
0.0

$$$$
>  <compound-smiles>
O=S(=O)(NCCNc1nccc(-n2ccc3cccnc32)n1)c1ccc(Cl)cc1

>  <qualitative-label>
0.0

$$$$
>  <compound-smiles>
Cc1ccc(C(=O)NCCCNc2nccc(-n3ccc4cccnc43)n2)cc1

>  <qualitative-label>
0.0

$$$$
>  <compound-smiles>
COc1ccc(S(=O)(=O)NCCCNc2nccc(-n3ccc4cccnc43)n2)cc1

>  <qualitative-label>
1.0

$$$$
>  <compound-smiles>
O=S(=O)(NCCNc1nccc(-n2ccc3cccnc32)n1)c1ccc(Br)cc1

>  <qualitative-label>
0.0

$$$$
>  <compound-smiles>
O=S(=O)(NCCCNc1nccc(-n2ccc3cccnc32)n1)c1ccccc1

>  <qualitative-label>
1.0

$$$$
>  <compound-smiles>
O=C(NCCNc1nccc(-n2ccc3cccnc32)n1)C1CCCCC1

>  <qualitative-label>
1.0

$$$$
>  <compound-smiles>
Cc1ccc(S(=O)(=O)NCCCNc2nccc(-n3ccc4cccnc43)n2)cc1

>  <qualitative-label>
1.0

$$$$

###

Listed here: items and their measured inhibition.
# target-of-assay: Serine/threonine-protein kinase B-raf (Homo sapiens)
# test: Inhibition of human wild type BRAF at 10 uM by ELISA
metric: inhibition (%)

>  <compound-smiles>
O=S(=O)(NCCNc1nccc(-n2ccc3cccnc32)n1)c1ccc(F)cc1

>  <observed-result>
55.9

$$$$
>  <compound-smiles>
O=S(=O)(NCCCNc1nccc(-n2ccc3cccnc32)n1)c1ccc(F)cc1

>  <observed-result>
79.7

$$$$
>  <compound-smiles>
O=S(=O)(NCCNc1nccc(-n2ccc3cccnc32)n1)c1cccc(Br)c1

>  <observed-result>
55.2

$$$$
>  <compound-smiles>
COc1ccc(S(=O)(=O)NCCCNc2nccc(-n3ccc4cccnc43)n2)cc1

>  <observed-result>
82.1

$$$$
>  <compound-smiles>
O=C(NCCCNc1nccc(-n2ccc3cccnc32)n1)c1ccc(Cl)cc1

>  <observed-result>
72.1

$$$$
>  <compound-smiles>
O=S(=O)(NCCCNc1nccc(-n2ccc3cccnc32)n1)c1ccccc1

>  <observed-result>
81.4

$$$$
>  <compound-smiles>
O=C(NCCCNc1nccc(-n2ccc3cccnc32)n1)c1ccc(F)cc1

>  <observed-result>
58.7

$$$$
